Tested on: ADDP (subclone of A2780) versus A2780 ovarian cancer cell lines
Experiment: Resistance factor, GI50 in ADDP/GI50 in A2780
Format: cell-based
observation.type: Resistance factor (RF)

1. Cc1c(C)c2ccc[n+]3c2c2c1ccc[n+]2[Pt-2]31([OH])([OH])[NH2+][C@H]2CCCC[C@@H]2[NH2+]1.O=[N+]([O-])[O-].O=[N+]([O-])[O-] [56MESS(IV)]; 3.036
2. Cc1cc2ccc[n+]3c2c2c1ccc[n+]2[Pt-2]31[NH2+][C@H]2CCCC[C@@H]2[NH2+]1.[Cl-].[Cl-] [5MESS(II)]; 0.557
3. [Cl-].[Cl-].c1cc2ccc3ccc[n+]4c3c2[n+](c1)[Pt-2]41[NH2+][C@H]2CCCC[C@@H]2[NH2+]1 [PHENSS(II)]; 0.793
4. Cc1cc2ccc[n+]3c2c2c1ccc[n+]2[Pt-2]31([OH])([OH])[NH2+][C@H]2CCCC[C@@H]2[NH2+]1.O=[N+]([O-])[O-].O=[N+]([O-])[O-] [5MESS(IV)]; 1.636
5. N.N.[Cl][Pt][Cl] [Cisplatin, cisplatin]; 28.00
6. COc1cc[n+]2c3c1ccc1c(OC)cc[n+](c13)[Pt-2]21[NH2+][C@H]2CCCC[C@@H]2[NH2+]1.[Cl-].[Cl-] [47OMESS(II)]; 0.739
7. Cc1c(C)c2ccc[n+]3c2c2c1ccc[n+]2[Pt-2]31([OH])([O]C(=O)CCCC[C@@H]2SC[C@@H]3NC(=O)N[C@@H]32)[NH2+][C@H]2CCCC[C@@H]2[NH2+]1.O=[N+]([O-])[O-].O=[N+]([O-])[O-] [Complex 2]; 0.55
8. Cc1c(C)c2ccc[n+]3c2c2c1ccc[n+]2[Pt-2]31[NH2+][C@H]2CCCC[C@@H]2[NH2+]1.[Cl-].[Cl-] [56MESS(II)]; 0.692
9. O=C1N[C@H]2[C@H](CS[C@H]2CCCCC(=O)[O][Pt-2]23([OH])([NH2+][C@H]4CCCC[C@@H]4[NH2+]2)[n+]2cccc4ccc5ccc[n+]3c5c42)N1.O=[N+]([O-])[O-].O=[N+]([O-])[O-] [Complex 1]; 0.96

* * *

Test system: non-cancerous MCF10A breast cell line
Test: MTT in vitro cytotoxicity assay, MCF10A
Format: cell-based
Conditions: 72 h drug exposure, n = 3, read-out: GI50 ± SEM, MCF10A
# GI50 values compiled below
observation.type: GI50 (nM)

1) COc1cc[n+]2c3c1ccc1c(OC)cc[n+](c13)[Pt-2]21([OH])([O]C(=O)CCCC[C@@H]2SC[C@@H]3NC(=O)N[C@@H]32)[NH2+][C@H]2CCCC[C@@H]2[NH2+]1.O=[N+]([O-])[O-].O=[N+]([O-])[O-]; 300
2) COc1cc[n+]2c3c1ccc1c(OC)cc[n+](c13)[Pt-2]21[NH2+][C@H]2CCCC[C@@H]2[NH2+]1.[Cl-].[Cl-]; 430
3) COc1cc[n+]2c3c1ccc1c(OC)cc[n+](c13)[Pt-2]21([OH])([OH])[NH2+][C@H]2CCCC[C@@H]2[NH2+]1.O=[N+]([O-])[O-].O=[N+]([O-])[O-]; 3700
4) Cc1cc2ccc[n+]3c2c2c1ccc[n+]2[Pt-2]31[NH2+][C@H]2CCCC[C@@H]2[NH2+]1.[Cl-].[Cl-]; 30
5) O=C1N[C@H]2[C@H](CS[C@H]2CCCCC(=O)[O][Pt-2]23([OH])([NH2+][C@H]4CCCC[C@@H]4[NH2+]2)[n+]2cccc4ccc5ccc[n+]3c5c42)N1.O=[N+]([O-])[O-].O=[N+]([O-])[O-]; 280

* * *

Test system: A431 skin cancer cells
Assay: MTT in vitro cytotoxicity assay, A431
Assay type: cell-based
Details: 72 h drug exposure, n = 3, read-out: GI50 ± SEM, A431
# GI50 values compiled below
observation.type: GI50 (nM)

1) COc1cc[n+]2c3c1ccc1c(OC)cc[n+](c13)[Pt-2]21([OH])([O]C(=O)CCCC[C@@H]2SC[C@@H]3NC(=O)N[C@@H]32)[NH2+][C@H]2CCCC[C@@H]2[NH2+]1.O=[N+]([O-])[O-].O=[N+]([O-])[O-]; 820
2) Cc1c(C)c2ccc[n+]3c2c2c1ccc[n+]2[Pt-2]31([OH])([O]C(=O)CCCC[C@@H]2SC[C@@H]3NC(=O)N[C@@H]32)[NH2+][C@H]2CCCC[C@@H]2[NH2+]1.O=[N+]([O-])[O-].O=[N+]([O-])[O-]; 36
3) COc1cc[n+]2c3c1ccc1c(OC)cc[n+](c13)[Pt-2]21[NH2+][C@H]2CCCC[C@@H]2[NH2+]1.[Cl-].[Cl-]; 350

* * *

Assay: Lipophilicity by RP-HPLC (logkw)
Format: physicochemical
Settings: capacity factor in 100% water
# logkw values compiled below
observation.type: logkw

1) Cc1cc2ccc[n+]3c2c2c1ccc[n+]2[Pt-2]31([OH])([O]C(=O)CCCC[C@@H]2SC[C@@H]3NC(=O)N[C@@H]32)[NH2+][C@H]2CCCC[C@@H]2[NH2+]1.O=[N+]([O-])[O-].O=[N+]([O-])[O-]; 0.74
2) O=C1N[C@H]2[C@H](CS[C@H]2CCCCC(=O)[O][Pt-2]23([OH])([NH2+][C@H]4CCCC[C@@H]4[NH2+]2)[n+]2cccc4ccc5ccc[n+]3c5c42)N1.O=[N+]([O-])[O-].O=[N+]([O-])[O-]; 0.64
3) Cc1c(C)c2ccc[n+]3c2c2c1ccc[n+]2[Pt-2]31([OH])([O]C(=O)CCCC[C@@H]2SC[C@@H]3NC(=O)N[C@@H]32)[NH2+][C@H]2CCCC[C@@H]2[NH2+]1.O=[N+]([O-])[O-].O=[N+]([O-])[O-]; 0.78
4) COc1cc[n+]2c3c1ccc1c(OC)cc[n+](c13)[Pt-2]21([OH])([O]C(=O)CCCC[C@@H]2SC[C@@H]3NC(=O)N[C@@H]32)[NH2+][C@H]2CCCC[C@@H]2[NH2+]1.O=[N+]([O-])[O-].O=[N+]([O-])[O-]; 0.96

* * *

# number-fold potency against cisplatin, Du145 prostate values compiled below
Test system: Du145 prostate cancer cells
Assay: MTT in vitro cytotoxicity assay, Du145
Type: cell-based
Details: ratio of GI50 values, 72 h
Description: The in vitro cytotoxicity assays were undertaken at Calvary Mater Hospital, Waratah, NSW, Australia, following a method previously published in the literature. A stock solution for each compound was prepared in DMSO (30 mM) and stored at −20 °C. […] The growth inhibitory effects were evaluated after 72 h drug exposure, using the MTT (3-(4,5-dimethylthiazol-2-yl)-2,5-diphenyltetrazolium bromide) assay, with the absorbance read at 540 nm. […]
observation.type: number-fold potency against cisplatin, Du145 prostate (fold)

1) COc1cc[n+]2c3c1ccc1c(OC)cc[n+](c13)[Pt-2]21([OH])([O]C(=O)CCCC[C@@H]2SC[C@@H]3NC(=O)N[C@@H]32)[NH2+][C@H]2CCCC[C@@H]2[NH2+]1.O=[N+]([O-])[O-].O=[N+]([O-])[O-] [Complex 3]; 10
2) Cc1cc2ccc[n+]3c2c2c1ccc[n+]2[Pt-2]31([OH])([O]C(=O)CCCC[C@@H]2SC[C@@H]3NC(=O)N[C@@H]32)[NH2+][C@H]2CCCC[C@@H]2[NH2+]1.O=[N+]([O-])[O-].O=[N+]([O-])[O-] [Complex 4]; 133
3) O=C1N[C@H]2[C@H](CS[C@H]2CCCCC(=O)[O][Pt-2]23([OH])([NH2+][C@H]4CCCC[C@@H]4[NH2+]2)[n+]2cccc4ccc5ccc[n+]3c5c42)N1.O=[N+]([O-])[O-].O=[N+]([O-])[O-] [Complex 1]; 10
4) Cc1c(C)c2ccc[n+]3c2c2c1ccc[n+]2[Pt-2]31([OH])([O]C(=O)CCCC[C@@H]2SC[C@@H]3NC(=O)N[C@@H]32)[NH2+][C@H]2CCCC[C@@H]2[NH2+]1.O=[N+]([O-])[O-].O=[N+]([O-])[O-] [Complex 2]; 300

* * *

Test system: A2780 ovarian cancer cells
Assay: MTT in vitro cytotoxicity assay, A2780
Format: cell-based
Settings: 72 h drug exposure, n = 3, read-out: GI50 ± SEM, A2780
Experimental: The in vitro cytotoxicity assays were undertaken at Calvary Mater Hospital, Waratah, NSW, Australia, following a method previously published in the literature. A stock solution for each compound was prepared in DMSO (30 mM) and stored at −20 °C. […] The growth inhibitory effects were evaluated after 72 h drug exposure, using the MTT (3-(4,5-dimethylthiazol-2-yl)-2,5-diphenyltetrazolium bromide) assay, with the absorbance read at 540 nm. […]
observation.type: log10 of GI50 (log10 of the value in nM)

1. COc1cc[n+]2c3c1ccc1c(OC)cc[n+](c13)[Pt-2]21[NH2+][C@H]2CCCC[C@@H]2[NH2+]1.[Cl-].[Cl-]; 2.36
2. Cc1cc2ccc[n+]3c2c2c1ccc[n+]2[Pt-2]31([OH])([OH])[NH2+][C@H]2CCCC[C@@H]2[NH2+]1.O=[N+]([O-])[O-].O=[N+]([O-])[O-]; 2.04
3. Cc1c(C)c2ccc[n+]3c2c2c1ccc[n+]2[Pt-2]31([OH])([O]C(=O)CCCC[C@@H]2SC[C@@H]3NC(=O)N[C@@H]32)[NH2+][C@H]2CCCC[C@@H]2[NH2+]1.O=[N+]([O-])[O-].O=[N+]([O-])[O-]; 1.30
4. O=C1N[C@H]2[C@H](CS[C@H]2CCCCC(=O)[O][Pt-2]23([OH])([NH2+][C@H]4CCCC[C@@H]4[NH2+]2)[n+]2cccc4ccc5ccc[n+]3c5c42)N1.O=[N+]([O-])[O-].O=[N+]([O-])[O-]; 2.40
5. COc1cc[n+]2c3c1ccc1c(OC)cc[n+](c13)[Pt-2]21([OH])([OH])[NH2+][C@H]2CCCC[C@@H]2[NH2+]1.O=[N+]([O-])[O-].O=[N+]([O-])[O-]; 3.23

Data origin, for the record: paper PMC9853328
